Documented scaled lipid accumulation score across a set of compounds
test system: primary human hepatic stellate cells (donor 1); assay: scaled lipid accumulation score (0 = DMSO-like, 1 = nortriptyline-like); higher = stronger HSC inactivation (lipid re-accumulation), active = hit call of the paper; conditions: library stock concentration: 3.33 mM; 48 h
Counter-ions that a name gives are not always drawn. Screen size: about 5,800 compounds; about 620 (11%) showed activity. This excerpt belongs to a sample that is enriched for actives.

Sample answers from the record:
Compound | Target desc | scaled lipid accumulation score
O=C(NCCN1CCOCC1)c1ccc(Cl)cc1 | primary human hepatic stellate cells (donor 1) | ≤ 0 (inactive)
CCN(CC)CCOC(=O)C(c1ccccc1)c1ccccc1 [Adiphenine HCl] | primary human hepatic stellate cells (donor 1) | ≤ 0 (inactive)

Next, consider the following compound.
Sure, the documented scaled lipid accumulation score for C[C@@H]1[C@H](O)[C@@H](C)/C=C/C=C/C=C/C=C/C=C/C=C/C=C/[C@H](O[C@@H]2O[C@H](C)[C@@H](O)[C@H](N)[C@@H]2O)C[C@@H]2O[C@](O)(C[C@@H](O)C[C@@H](O)[C@H](O)CC[C@@H](O)C[C@@H](O)CC(=O)O[C@H]1C)C[C@H](O)[C@H]2C(=O)O [Amphotericin B] is 0.002 (inactive)
